Data origin: patent US8101638B2

Target: UniProt:P41145
Sequence (P41145 whole entry): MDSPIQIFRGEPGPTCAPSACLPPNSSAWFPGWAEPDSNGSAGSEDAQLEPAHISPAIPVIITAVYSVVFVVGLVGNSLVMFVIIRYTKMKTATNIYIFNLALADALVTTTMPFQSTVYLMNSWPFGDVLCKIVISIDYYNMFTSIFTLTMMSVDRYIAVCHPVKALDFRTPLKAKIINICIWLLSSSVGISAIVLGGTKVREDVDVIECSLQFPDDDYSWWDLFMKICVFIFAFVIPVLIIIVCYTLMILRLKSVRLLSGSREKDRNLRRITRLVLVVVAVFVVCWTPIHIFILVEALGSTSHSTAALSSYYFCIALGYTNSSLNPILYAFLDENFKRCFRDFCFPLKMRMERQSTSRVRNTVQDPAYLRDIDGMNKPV
Assay: SPA-based GTP-γ-S binding assay, antagonist mode, kappa opioid receptor
Format: biochemical
Settings: antagonist assay against agonist U69593 300 nM; membranes; Kb by Cheng-Prusoff equation
Outcome Measure: Kb (nM)

# count of solved cases: 3
CC(C)CCN(C)C1CCc2cc(Oc3ccc(C(N)=O)cn3)ccc21 (centres unmarked) : 2.5
NC(=O)c1ccc(Oc2ccc3c(c2)CCC3NCCc2ccc(F)cc2)nc1 (centres unmarked) : 9.2
CC(C)CCNCC1CCCc2c(Oc3ccc(C(N)=O)cn3)cccc21 (centres unmarked) : 11.8

[1] CC(C)(C)CCNCC1CCCc2c(Oc3ccc(C(N)=O)cn3)cccc21 (centres unmarked)
[2] NC(=O)c1ccc(Oc2cccc3c2CCCC3CNCCC2CCCCC2)nc1 (centres unmarked)
Which of the two items, 1 and 2 , has the greater recorded Kb? Respond using the label that marks the chosen record.
2
(2: 76 nM, 1: 5.79 nM)

----------
Target: delta opioid receptor (DOR) (Homo sapiens, UniProt P41143)
Sequence (P41143 whole entry): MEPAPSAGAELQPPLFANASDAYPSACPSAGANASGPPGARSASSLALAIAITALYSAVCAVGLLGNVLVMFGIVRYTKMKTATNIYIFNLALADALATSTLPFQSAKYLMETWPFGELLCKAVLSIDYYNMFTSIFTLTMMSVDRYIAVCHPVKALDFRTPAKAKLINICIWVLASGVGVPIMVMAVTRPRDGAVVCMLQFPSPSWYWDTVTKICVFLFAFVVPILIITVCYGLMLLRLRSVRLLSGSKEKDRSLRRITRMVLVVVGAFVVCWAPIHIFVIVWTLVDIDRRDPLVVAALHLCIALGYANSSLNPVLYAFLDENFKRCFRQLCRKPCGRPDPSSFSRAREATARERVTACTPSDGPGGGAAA
Assay: SPA-based GTP-γ-S binding assay, antagonist mode, delta opioid receptor
Assay type: biochemical
Details: antagonist assay against agonist DPDPE 30 nM; membranes; Kb by Cheng-Prusoff equation
Outcome Measure: Kb (nM)

CC(C)CCNCC1CCCc2c(Oc3ccc(C(N)=O)cn3)cccc21 (centres unmarked) : 9.4
NC(=O)c1ccc(Oc2ccc3c(c2)CCC3NCCc2ccc(F)cc2)nc1 (centres unmarked) : 14.6
CC(C)(C)CCNCC1CCCc2c(Oc3ccc(C(N)=O)cn3)cccc21 (centres unmarked) : 4.09

[P] NC(=O)c1ccc(Oc2cccc3c2CCCC3CNCCC2CCCCC2)nc1 (centres unmarked)
[Q] CC(C)CCN(C)C1CCc2cc(Oc3ccc(C(N)=O)cn3)ccc21 (centres unmarked)
Kindly identify the item with the lower Kb figure among these two: P and Q Your choice should be expressed through its label.
P
(P: 7.9 nM, Q: 13.5 nM)

----------
Biological target: mu opioid receptor (MOR) (Homo sapiens, UniProt P35372)
Sequence (P35372 whole entry): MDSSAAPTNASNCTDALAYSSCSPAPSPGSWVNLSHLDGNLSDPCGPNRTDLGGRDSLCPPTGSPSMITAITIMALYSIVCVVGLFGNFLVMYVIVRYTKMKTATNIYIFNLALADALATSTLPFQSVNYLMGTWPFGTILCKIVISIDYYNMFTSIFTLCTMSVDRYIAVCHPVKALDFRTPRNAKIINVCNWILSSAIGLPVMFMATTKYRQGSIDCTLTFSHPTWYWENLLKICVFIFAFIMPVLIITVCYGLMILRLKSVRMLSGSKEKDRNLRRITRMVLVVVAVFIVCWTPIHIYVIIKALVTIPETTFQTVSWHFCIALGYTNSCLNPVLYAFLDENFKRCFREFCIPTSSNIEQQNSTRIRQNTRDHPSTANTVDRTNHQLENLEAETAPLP
Experiment: SPA-based GTP-γ-S binding assay, antagonist mode, mu opioid receptor
Assay type: biochemical
Conditions: antagonist assay against agonist DAMGO 1 micromolar; membranes; Kb by Cheng-Prusoff equation
Outcome Measure: Kb (nM)

Some molecules with recorded Kb:
CC(C)CCN(C)C1CCc2cc(Oc3ccc(C(N)=O)cn3)ccc21 (centres unmarked) : 0.73
NC(=O)c1ccc(Oc2cccc3c2CCCC3CNCCC2CCCCC2)nc1 (centres unmarked) : 0.5
CC(C)CCNCC1CCCc2c(Oc3ccc(C(N)=O)cn3)cccc21 (centres unmarked) : 1.1

[a] NC(=O)c1ccc(Oc2ccc3c(c2)CCC3NCCc2ccc(F)cc2)nc1 (centres unmarked)
[b] CC(C)(C)CCNCC1CCCc2c(Oc3ccc(C(N)=O)cn3)cccc21 (centres unmarked)
Hi, I'm comparing a with b and wondering which one has the bigger number for Kb. Any idea? Indicate your choice by writing its label.
b
(b: 0.65 nM, a: 0.4 nM)
